Target: biotinylated MSLN (human MSLN in the MSLN/MUC16 competition ELISA) (human, UniProt Q13421 296-598, limits assumed, biotinylated)
Assay: competition ELISA, scFv titrated with biotinylated MSLN; competitor coated MUC16
binders and their reported rel. IC50 (IC50, Amatuximab/IC50, scFv)
Numbers only here, please. The scale is ratio.

Known rel. IC50 (IC50, Amatuximab/IC50, scFv) results, listed for orientation:
binder="anti-MSLN scFv PRO1783 (scFv, also called 54-01-G02-sc01) scFv: DIQMTQSPSSLSASVGDRVTITCQASQNIYSNLAWYQQKPGKAPKLLIYDASDLASGVPSRFSGSGSGTDFTLTISSLQPEDFATYYCQQVRSSSDIDNPFGTGTKVTVLGGGGGSGGGGSGGGGSGGGGSQVQLVESGGGLVQPGGSLRLSCAASGFSLSSYAMGWVRQAPGKGLEWIGYISTINNTYYASWAKGRFTISRDNSKNTVYLQMNSLRAEDTAVYYCAREIRSGWVDYGFSIWGQGTLVTVSS" readout_label="rel. IC50 (IC50, Amatuximab/IC50, scFv)" units_label=ratio number=0.03
binder="anti-MSLN scFv PRO1922 (scFv, also called 54-21-H03-sc01) scFv: DIQMTQSPSSLSASVGDRVTITCQASESIYSSLAWYQQKPGKAPKLLIYLASTLASGVPSRFSGSGSGTDFTLTISSLQPEDFATYYCQSTDYTTSTHRNSFGTGTKVTVLGGGGGSGGGGSGGGGSGGGGSEVQLVESGGGLVQPGGSLRLSCAASGFSFSTTYYMCWVRQAPGKGLEWIGCTNTASSVRTYYATWAKGRFTISRDNSKNTVYLQMNSLRAEDTAVYYCARDMGFADYALNLWGQGTLVTVSS" readout_label="rel. IC50 (IC50, Amatuximab/IC50, scFv)" units_label=ratio number=0.29

Could you now look at the following binder, please?
Reported rel. IC50 (IC50, Amatuximab/IC50, scFv) for anti-MSLN scFv PRO1925 (scFv, also called 54-32-A07-sc02) scFv: ALQMTQSPSSLSASVGDRVTITCQASQSISNYLAWYQQKPGKPPKFLIYDASDLASGVSSRFSGSGSGTDFTLTISSLQPEDFATYYCQQVYDSNNVENVFGTGTKVTVLGGGGGSGGGGSGGGGSGGGGSQSQLVESGGGLVQPGGSLRLSCAVSGFSLSSYAMGWVRQAPGKGLEYIGYISKIGTTYYASWAKGRFTISKDNSKNTVYLQMNSLRAEDTAVYFCARGSSSGGYLDDGFDPWGQGTLVTVSS : what is it?
0.11
